// data source = patent US4077999A

- Tested on: ischiadic nerve of rats
- assay_method_text: Local analgesic effect (method of Truant and d'Amato), motor paralysis and its duration
- Type: in vivo
- test_context: 1.0 % concentration; duration of local analgesic effect (motor paralysis)
parameter: Duration, minutes (1.0%) (min)
# unit: min | format: bare number

Which Duration, minutes (1.0%) is listed for CCN(CC)CCON=C1CCCC1=Cc1ccccc1 [Example 7] ?
127

Which Duration, minutes (1.0%) is listed for CN(C)CCCON=C1CCCCC1=Cc1ccccc1 [Example 1] ?
115

Which Duration, minutes (1.0%) is listed for COc1ccccc1C=C1CCCCC1=NOCCCN(C)C [Example 15] ?
160

Which Duration, minutes (1.0%) is listed for CCN(CC)CC(=O)Nc1c(C)cccc1C [Lidocaine, reference compound] ?
52

Which Duration, minutes (1.0%) is listed for CN(C)CCON=C1CCCC1=Cc1ccccc1 [Example 5] ?
96

Which Duration, minutes (1.0%) is listed for CC(C)N(CCON=C1CCCC1=Cc1ccccc1)C(C)C [Example 8] ?
129

Which Duration, minutes (1.0%) is listed for CCN(CC)CCON=C1CCCCC1=Cc1ccccc1 [Example 2] ?
111
